Record form. Attribute: pKi. Fill in for each entry.
Target: human thyroid hormone receptors TRβ1 (Homo sapiens, UniProt P10828)
Construct: made in house; host or cells: Sf9 insect cells (baculovirus)
Sequence (P10828 whole entry, one chain of several): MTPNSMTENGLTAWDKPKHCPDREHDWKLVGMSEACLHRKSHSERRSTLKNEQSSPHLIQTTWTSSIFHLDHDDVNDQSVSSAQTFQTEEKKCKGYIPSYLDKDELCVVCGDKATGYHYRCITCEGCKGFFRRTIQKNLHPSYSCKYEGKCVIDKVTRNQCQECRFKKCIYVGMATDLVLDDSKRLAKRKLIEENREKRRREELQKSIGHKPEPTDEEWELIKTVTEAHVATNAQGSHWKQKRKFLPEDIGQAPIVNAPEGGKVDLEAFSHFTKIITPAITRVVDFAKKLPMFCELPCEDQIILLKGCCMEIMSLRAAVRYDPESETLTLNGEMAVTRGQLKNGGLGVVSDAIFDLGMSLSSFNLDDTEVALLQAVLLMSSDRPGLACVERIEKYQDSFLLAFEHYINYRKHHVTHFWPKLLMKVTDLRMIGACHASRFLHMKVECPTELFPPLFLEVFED
Experiment: Receptor binding to TRβ1 (gel filtration and scintillation proximity assay, labeled T3)
Conditions: read-out: Ki TRβ
Scale for pKi: -log10 of concentration given in mol/L; no unit attached.

Name the recorded pKi for COc1cc(OCP(=O)(O)O)cc(OC)c1Cc1ccc(O)c(C(C)C)c1 [Compound 7-2] . 6.84

Try this molecule next: Cc1cc(OCCP(=O)(O)O)cc(C)c1Cc1ccc(O)c(C(C)C)c1 [Compound 26] 7.06

Request: CC(C)c1cc(Oc2c(Cl)cc(CP(=O)(O)O)cc2Cl)ccc1O [Compound 19] 7.28

And the next one, CCc1cc(Cc2c(C)cc(OCP(=O)(O)O)cc2C)ccc1O [Compound 7-8] ? 8.01

Another molecule: CC(C)c1cc(Oc2c(Br)cc(NCP(=O)(O)O)cc2Br)ccc1O [Compound 22-1] 8.82

Can you handle CC(C)c1cc(Oc2c(I)cc(CP(=O)(O)O)cc2I)ccc1O [Compound 5] next? 9.08

Same read-out for Cc1cc(SCP(=O)(O)O)cc(C)c1Oc1ccc(O)c(C(C)C)c1 [Compound 54] ? 7.38

Thanks! And NC(Cc1cc(I)c(Oc2ccc(O)c(I)c2)c(I)c1)P(=O)(O)O (centres unmarked) [Compound 2] ? 6.57

###

Biological target: human thyroid hormone receptors TRα1 (Homo sapiens, UniProt P10827)
Construct: made in house; host or cells: Sf9 insect cells (baculovirus)
Sequence (P10827 1-410 isoform P10827-2): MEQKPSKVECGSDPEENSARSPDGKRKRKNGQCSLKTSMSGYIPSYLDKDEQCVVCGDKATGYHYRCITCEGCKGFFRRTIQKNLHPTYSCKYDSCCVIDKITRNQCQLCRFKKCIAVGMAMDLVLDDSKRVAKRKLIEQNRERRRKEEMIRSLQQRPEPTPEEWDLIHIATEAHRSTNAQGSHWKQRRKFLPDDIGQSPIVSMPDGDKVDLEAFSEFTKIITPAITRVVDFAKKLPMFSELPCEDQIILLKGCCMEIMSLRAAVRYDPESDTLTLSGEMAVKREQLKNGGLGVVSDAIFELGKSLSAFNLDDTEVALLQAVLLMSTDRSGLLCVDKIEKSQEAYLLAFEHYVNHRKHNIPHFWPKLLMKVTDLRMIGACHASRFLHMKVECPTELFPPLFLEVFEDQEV
Sequence (P19793 whole entry partner): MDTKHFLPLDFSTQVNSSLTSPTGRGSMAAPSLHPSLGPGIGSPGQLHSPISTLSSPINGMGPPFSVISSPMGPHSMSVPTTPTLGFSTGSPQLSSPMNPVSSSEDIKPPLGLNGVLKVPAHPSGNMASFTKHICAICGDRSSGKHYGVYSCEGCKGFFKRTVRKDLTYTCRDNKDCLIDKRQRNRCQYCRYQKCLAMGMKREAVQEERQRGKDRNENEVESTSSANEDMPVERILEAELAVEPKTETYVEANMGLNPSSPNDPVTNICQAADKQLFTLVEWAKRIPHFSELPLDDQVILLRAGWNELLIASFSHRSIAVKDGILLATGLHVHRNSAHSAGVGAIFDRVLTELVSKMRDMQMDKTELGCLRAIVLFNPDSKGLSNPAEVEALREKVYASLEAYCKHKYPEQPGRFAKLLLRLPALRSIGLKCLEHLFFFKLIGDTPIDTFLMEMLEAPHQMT
Test: Receptor binding to TRα1 (gel filtration and scintillation proximity assay, labeled T3)
Conditions: SPA data; read-out: Ki TRα
Quantity: pKi
Scale for pKi: -log10 of concentration given in mol/L; no unit attached.

Given the compound `Cc1cc(OCP(=O)(O)O)cc(C)c1Oc1ccc(O)c(C(C)C)c1` , what is its reported pKi? 6.27

Same for Cc1cc(OC[P@@]2(=O)OCC[C@@H](c3cccc(Br)c3)O2)cc(C)c1Cc1ccc(O)c(C(C)C)c1 [Compound 13-2-cis] 6.31

Then `Cc1cc(/C=C/P(=O)(O)O)cc(C)c1Oc1ccc(O)c(C(C)C)c1` ? 6.43

Entry CCC(C)c1cc(Cc2c(C)cc(OCP(=O)(O)O)cc2C)ccc1O (centres unmarked) please 7.51

Now consider `Cc1cc(OCP(=O)(O)O)cc(C)c1Cc1ccc(O)c(S(=O)(=O)C(C)C)c1` . 6.08

Try this compound too: `Cc1cc(OCP(=O)(O)O)cc(C)c1Cc1ccc(O)c(Cc2ccc(F)cc2)c1` 7.52

What would you report for `Cc1cc(OCP(=O)(O)O)cc(C)c1Cc1ccc(O)c(Cc2ccccc2)c1` ? 6.60

How about Cc1cc(OC[P@]2(=O)OCC[C@@H](c3cccnc3)O2)cc(C)c1Cc1ccc(O)c(C(C)C)c1 [Compound 13-4-trans] ? 5.67

###

System: CYP3A (cytochrome P450-3A (CYP3A4))
Assay: Prodrug activation in rat liver microsomes
Assay type: in vitro ADME
Details: liver microsomes from dexamethasone-treated rats; dexamethasone treated rat microsomes, formation of Compound 7
Record form. Attribute: Km. Fill in for each entry.
The reply should contain only the number, in µM.

Please look up its Km: Cc1cc(OC[P@@]2(=O)OCC[C@@H](c3ccncc3)O2)cc(C)c1Cc1ccc(O)c(C(C)C)c1 [Compound 13-5-cis] 113

Queued: Cc1cc(OC[P@]2(=O)OCC[C@H](c3ccc(Cl)cc3)O2)cc(C)c1Cc1ccc(O)c(C(C)C)c1 [Compound 13-6-cis] 10

Again, but for Cc1cc(OCP(=O)(OCOC(=O)OC(C)C)OCOC(=O)OC(C)C)cc(C)c1Cc1ccc(O)c(C(C)C)c1 [Compound 12-3] 14

Now consider Cc1cc(OC[P@@]2(=O)OCC[C@@H](c3cccc(Br)c3)O2)cc(C)c1Cc1ccc(O)c(C(C)C)c1 [Compound 13-2-cis] and answer again. 8

Again, but for Cc1cc(OC[P@@]2(=O)OCC[C@@H](c3cccc(Cl)c3)O2)cc(C)c1Cc1ccc(O)c(C(C)C)c1 [Compound 13-1-cis] 31

And Cc1cc(OC[P@@]2(=O)OCC[C@@H](c3cccc(F)c3)O2)cc(C)c1Cc1ccc(O)c(C(C)C)c1 [Compound 13-3-cis] ? 46

How about this compound: Cc1cc(OC[P@@]2(=O)OCC[C@@H](c3cccnc3)O2)cc(C)c1Cc1ccc(O)c(C(C)C)c1 [Compound 13-4-cis] 100
